# target.system: T1, human IL-13 R130Q variant (R110Q of the mature chain) (human, UniProt P35225 35-146, Biotinylated on amines (NHS-LC-biotin, 4:1) in ELISA, panning and competition assays. The letters are unchanged.)
# T1 construct: R130Q counts from Met 1 of the signal peptide, R110Q on the mature chain; Bought from Peprotech; also called IL-13 R110Q; b-R130Q
# T1 sequence (P35225 35-146 limits assumed, stated change not applied): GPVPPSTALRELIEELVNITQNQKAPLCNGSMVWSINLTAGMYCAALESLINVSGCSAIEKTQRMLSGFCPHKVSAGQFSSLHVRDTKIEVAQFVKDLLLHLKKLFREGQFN
# test.name: single-point (10 nM) phage Fab ELISA on biotinylated IL-13 R130Q
observable: % of Lc16Hc7 (%)
Unit % implied. Number only.

What measured % of Lc16Hc7 goes with Phage # 13 Fab (IL-13-142 library) (Fab, V domains shown, Fab on phage pIX) VH: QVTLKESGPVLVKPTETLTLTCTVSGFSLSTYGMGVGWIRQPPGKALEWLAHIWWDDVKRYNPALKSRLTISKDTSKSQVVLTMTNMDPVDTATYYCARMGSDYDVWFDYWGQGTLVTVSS VL: DIQMTQSPSTLSASVGDRVTITCRASKSISKYLAWYQQKPGKAPKLLIYSGSTLQSGVPSRFSGSGSGTEFTLTISSLQPDDFATYYCQQHEWGPYTFGGGTKVEIK ?
196

What measured % of Lc16Hc7 goes with Phage # 81 Fab (IL-13-142 library) (Fab, V domains shown, Fab on phage pIX) VH: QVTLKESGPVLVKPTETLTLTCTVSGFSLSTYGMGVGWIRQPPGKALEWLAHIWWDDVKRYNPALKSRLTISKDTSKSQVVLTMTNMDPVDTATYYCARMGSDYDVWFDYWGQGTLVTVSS VL: DIQMTQSPSTLSASVGDRVTITCRASKSISKYLAWYQQKPGKAPKLLIYSGSTLQSGVPSRFSGSGSGTEFTLTISSLQPDDFATYYCQQHDVGPYTFGGGTKVEIK ?
231

What measured % of Lc16Hc7 goes with Phage # 48 Fab (IL-13-142 library) (Fab, V domains shown, Fab on phage pIX) VH: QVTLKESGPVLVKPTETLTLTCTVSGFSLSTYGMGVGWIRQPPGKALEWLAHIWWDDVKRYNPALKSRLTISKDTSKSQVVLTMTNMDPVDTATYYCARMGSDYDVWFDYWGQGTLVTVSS VL: DIQMTQSPSTLSASVGDRVTITCRASKSISKYLAWYQQKPGKAPKLLIYSGSTLQSGVPSRFSGSGSGTEFTLTISSLQPDDFATYYCQQHDWGPYTFGGGTKVEIK ?
180

What measured % of Lc16Hc7 goes with Phage # 35 Fab (IL-13-142 library) (Fab, V domains shown, Fab on phage pIX) VH: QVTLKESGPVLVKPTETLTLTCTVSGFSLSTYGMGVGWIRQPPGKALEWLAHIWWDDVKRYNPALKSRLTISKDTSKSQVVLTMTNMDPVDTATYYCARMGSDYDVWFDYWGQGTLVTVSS VL: DIQMTQSPSTLSASVGDRVTITCRASKSISKYLAWYQQKPGKAPKLLIYSGSTLQSGVPSRFSGSGSGTEFTLTISSLQPDDFATYYCQQHDRGPYTFGGGTKVEIK ?
296

What measured % of Lc16Hc7 goes with Phage # 40 Fab (IL-13-142 library) (Fab, V domains shown, Fab on phage pIX) VH: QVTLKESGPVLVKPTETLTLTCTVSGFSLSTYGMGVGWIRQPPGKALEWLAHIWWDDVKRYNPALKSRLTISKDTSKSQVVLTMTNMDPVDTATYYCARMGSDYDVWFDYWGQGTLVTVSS VL: DIQMTQSPSTLSASVGDRVTITCRASKSISKYLAWYQQKPGKAPKLLIYSGSTLQSGVPSRFSGSGSGTEFTLTISSLQPDDFATYYCQQHSRGPYTFGGGTKVEIK ?
179

What measured % of Lc16Hc7 goes with Phage # 05 Fab (IL-13-142 library) (Fab, V domains shown, Fab on phage pIX) VH: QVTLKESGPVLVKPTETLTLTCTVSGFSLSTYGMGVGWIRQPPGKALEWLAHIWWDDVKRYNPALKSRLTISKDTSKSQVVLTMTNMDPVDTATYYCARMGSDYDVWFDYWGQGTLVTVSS VL: DIQMTQSPSTLSASVGDRVTITCRASKSISKYLAWYQQKPGKAPKLLIYSGSTLQSGVPSRFSGSGSGTEFTLTISSLQPDDFATYYCQQHVSGPYTFGGGTKVEIK ?
320

What measured % of Lc16Hc7 goes with Phage # 76 Fab (IL-13-142 library) (Fab, V domains shown, Fab on phage pIX) VH: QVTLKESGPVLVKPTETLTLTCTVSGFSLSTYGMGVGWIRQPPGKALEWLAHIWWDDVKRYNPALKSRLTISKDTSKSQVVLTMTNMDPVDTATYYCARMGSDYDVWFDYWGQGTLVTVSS VL: DIQMTQSPSTLSASVGDRVTITCRASKSISKYLAWYQQKPGKAPKLLIYSGSTLQSGVPSRFSGSGSGTEFTLTISSLQPDDFATYYCQQHLDLPYTFGGGTKVEIK ?
256

What measured % of Lc16Hc7 goes with Phage # 31 Fab (IL-13-142 library) (Fab, V domains shown, Fab on phage pIX) VH: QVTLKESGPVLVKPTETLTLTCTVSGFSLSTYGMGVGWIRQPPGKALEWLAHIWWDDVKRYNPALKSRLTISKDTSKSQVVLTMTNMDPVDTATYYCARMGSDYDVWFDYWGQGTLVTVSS VL: DIQMTQSPSTLSASVGDRVTITCRASKSISKYLAWYQQKPGKAPKLLIYSGSTLQSGVPSRFSGSGSGTEFTLTISSLQPDDFATYYCQQHFRRPYTFGGGTKVEIK ?
288

What measured % of Lc16Hc7 goes with Phage # 01 Fab (IL-13-142 library) (Fab, V domains shown, Fab on phage pIX) VH: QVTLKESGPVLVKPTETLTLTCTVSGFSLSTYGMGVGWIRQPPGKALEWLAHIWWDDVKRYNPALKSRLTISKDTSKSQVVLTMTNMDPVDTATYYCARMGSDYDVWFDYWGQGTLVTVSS VL: DIQMTQSPSTLSASVGDRVTITCRASKSISKYLAWYQQKPGKAPKLLIYSGSTLQSGVPSRFSGSGSGTEFTLTISSLQPDDFATYYCQQHWWGPYTFGGGTKVEIK ?
222

What measured % of Lc16Hc7 goes with Phage # 94 Fab (IL-13-142 library) (Fab, V domains shown, Fab on phage pIX) VH: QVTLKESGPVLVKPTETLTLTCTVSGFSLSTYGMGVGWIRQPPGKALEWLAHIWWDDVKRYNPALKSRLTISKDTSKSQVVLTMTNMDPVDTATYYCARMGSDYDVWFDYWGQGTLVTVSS VL: DIQMTQSPSTLSASVGDRVTITCRASKSISKYLAWYQQKPGKAPKLLIYSGSTLQSGVPSRFSGSGSGTEFTLTISSLQPDDFATYYCQQHDLGPYTFGGGTKVEIK ?
272

What measured % of Lc16Hc7 goes with Phage # 77 Fab (IL-13-142 library) (Fab, V domains shown, Fab on phage pIX) VH: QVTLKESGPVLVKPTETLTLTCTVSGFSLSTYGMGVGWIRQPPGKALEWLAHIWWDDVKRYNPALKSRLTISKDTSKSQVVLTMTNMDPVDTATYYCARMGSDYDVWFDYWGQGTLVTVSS VL: DIQMTQSPSTLSASVGDRVTITCRASKSISKYLAWYQQKPGKAPKLLIYSGSTLQSGVPSRFSGSGSGTEFTLTISSLQPDDFATYYCQQHDFAPYTFGGGTKVEIK ?
195
